Data origin: patent US20210403506A1

Molecular target: T1, human Chemokine like receptor 1 (human, UniProt Q99788 1-373)
T1 sequence (looked up): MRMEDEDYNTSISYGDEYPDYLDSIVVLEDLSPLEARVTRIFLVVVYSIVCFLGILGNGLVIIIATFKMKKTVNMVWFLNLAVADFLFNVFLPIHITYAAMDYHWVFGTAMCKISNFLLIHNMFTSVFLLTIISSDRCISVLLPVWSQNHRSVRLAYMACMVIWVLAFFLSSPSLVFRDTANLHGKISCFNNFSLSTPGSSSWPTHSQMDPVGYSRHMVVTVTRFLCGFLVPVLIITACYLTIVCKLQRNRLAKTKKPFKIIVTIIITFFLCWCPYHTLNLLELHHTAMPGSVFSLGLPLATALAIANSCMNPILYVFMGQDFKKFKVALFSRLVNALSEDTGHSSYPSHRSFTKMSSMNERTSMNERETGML
Experiment: cell-based or functional assay
Square brackets hold non-standard residues; d marks the D form. Ends that are not written are not given here. * marks the point of attachment. PEG8 = NCCOCCOCCOCCOCCOCCOCCOCCOCCC(=O)O; dOic = O=C(O)[C@H]1C[C@H]2CCCC[C@H]2N1; 2Nal = N[C@@H](Cc1ccc2ccccc2c1)C(=O)O; dNMeY = CN[C@H](Cc1ccc(O)cc1)C(=O)O; Hydrocinnamoyl = O=C(CCc1ccccc1)*; Myristoyl = CCCCCCCCCCCCCC(=O)*; Tic = O=C(O)[C@@H]1Cc2ccccc2CN1; dTic = O=C(O)[C@H]1Cc2ccccc2CN1; NMeL = CN[C@@H](CC(C)C)C(=O)O; Pro(4Ph) = 4-phenylproline; NHoSer = not defined here; NMeS = CN[C@@H](CO)C(=O)O; Thz = O=C(O)[C@@H]1CSCN1; βAla = NCCC(=O)O
Simple rule here: EC50 (µM), activation of Tango CMKLR1-bla U2OS cells less than 0.009 µM is class 1, otherwise class 0.

>  <binder>
[dY]F[NMeL]P[dS]QF[dA][dTic][NMeS] [YW-182]

>  <class.name>
class 0

$$$$
>  <binder>
[dY]FL[Pro(4Ph)][dS]QF[dA][Tic]S-OH [YW-113]

>  <class.name>
class 1

$$$$
>  <binder>
Hydrocinnamoyl-[dY]F[NPrL]P[dS]QF[dA][Tic]S [YW-186]

>  <class.name>
class 0

$$$$

Task: Hello, I'm reviewing records and need to know if EC50 (µM), activation of Tango CMKLR1-bla U2OS cells of [dNMeY]F[NMeL][Thz][dS]QF[dA][Tic]S [YW-123] is below 0.009 µM. Could you check?
Result: class 1

Task: Hello, I'm reviewing records and need to know if EC50 (µM), activation of Tango CMKLR1-bla U2OS cells of [dY]F[NMeL]P[dS]QF[dA][dOic]S-OH [YW-176] is below 0.009 µM. Could you check?
Result: class 1

Task: Hello, I'm reviewing records and need to know if EC50 (µM), activation of Tango CMKLR1-bla U2OS cells of [dNMeY]F[NMeL]P[dS]Q[2Nal][dA][Tic]S-OH (N-terminus assumed; SMILES CN[C@H](Cc1ccc(O)cc1)C(=O)N[C@@H](Cc1ccccc1)C(=O)N(C)[C@@H](CC(C)C)C(=O)N1CCC[C@H]1C(=O)N[C@H](CO)C(=O)N[C@@H](CCC(N)=O)C(=O)N[C@@H](Cc1ccc2ccccc2c1)C(=O)N[C@H](C)C(=O)N1Cc2ccccc2C[C@H]1C(=O)N[C@@H](CO)C(=O)O) [YW-167] is below 0.009 µM. Could you check?
Result: class 1

Task: Hello, I'm reviewing records and need to know if EC50 (µM), activation of Tango CMKLR1-bla U2OS cells of {Myristoyl-PEG8}-[βAla][βAla][dNMeY]F[NMeL]P[dS]Q[2Nal][dA][Tic][NMeS] [YW-180] is below 0.009 µM. Could you check?
Result: class 1

Task: Hello, I'm reviewing records and need to know if EC50 (µM), activation of Tango CMKLR1-bla U2OS cells of [dY]F[NMeL]P[dS]QF[dA][Tic][NHoSer]-OH (reading uncertain; also: printed as (D-Tyr)-Phe-(NMe-Leu)-Pro-(D-Ser)-Gln-Phe-(D-Ala)-Tic-(NHoSer)) [YW-172] is below 0.009 µM. Could you check?
Result: class 1
